Please go through the items and note down their TGI.
test system: OVCAR-5 ovarian; test: NCI tumour cell line growth inhibition, 48 h

[
  {
    "compound": "CCOP(=O)(CCC(O)CNc1nc(N)nc(Cl)c1N=Nc1ccc(Cl)cc1)OCC (configuration not stated)",
    "parameterMeasured": "TGI",
    "measured": "34.1 µM"
  },
  {
    "compound": "N#Cc1c(SCc2ccccc2)nc2[nH]c(=S)[nH]c(=S)c2c1-c1ccco1",
    "parameterMeasured": "TGI",
    "measured": "> 100 µM"
  },
  {
    "compound": "COc1ccc(/C=c2/[nH]c(=O)/c(=C\\c3ccc(OCc4ccccc4)cn3)[nH]c2=O)cc1",
    "parameterMeasured": "TGI",
    "measured": "> 100 µM"
  },
  {
    "compound": "N=C(N)C(N=Nc1ccccc1)C(=N)N (configuration not stated)",
    "parameterMeasured": "TGI",
    "measured": "> 100 µM"
  },
  {
    "compound": "CN1CCC23c4ccccc4NC1C21CCN(C)C3Nc2ccccc21",
    "parameterMeasured": "TGI",
    "measured": "> 375 µM"
  }
]

Please give TGI, item by item, for the list that follows.
1. COc1ccccc1NC(=S)Nc1cccc(C)n1
2. c1ccc2c(NCCCCCCCCNc3cccc4ccccc34)cccc2c1
3. Cc1cc(Nc2nc(N3CCOCC3)nc3ccccc23)n[nH]1
4. CC1C(c2ccccc2)=CCON1c1ccccc1 (configuration not stated)
5. CC(C)CC(NC(=O)OCc1ccccc1)C(=O)NCCCCC(N)C(=O)NC(CCCCNC(=O)C(CC(C)C)NC(=O)OCc1ccccc1)C(=O)NC(CCCCNC(=O)C(CC(C)C)NC(=O)OCc1ccccc1)C(=O)NC(CCCCNC(=O)C(CC(C)C)NC(=O)OCc1ccccc1)C(=O)NC(CCCCNC(=O)C(CC(C)C)NC(=O)OCc1ccccc1)C(=O)NC(CCCCNC(=O)C(CC(C)C)NC(=O)OCc1ccccc1)C(=O)O (configuration not stated)
6. CC(=O)C1=C(O)C2(O)C(=O)c3c(c(C)c4ccc(C)c(O)c4c3O)CC2C(N)C1=O (configuration not stated)
7. CCOC(=O)Cc1nc2nn(Cc3ccccc3)cc2c(=O)[nH]1

# output
> 100 µM
> 100 µM
> 100 µM
> 100 µM
> 100 µM
14 µM
> 100 µM

Please give TGI, item by item, for the list that follows.
1. CNC(=O)C(C)NC(=O)C(Cc1ccccc1)NC(=O)OC(C)(C)C (configuration not stated)
2. COc1ccc(OC)c2sc(N3C(=O)/C(=C/c4ccccc4S)N=C3c3ccccc3)nc12
3. O=C(Nc1cccc(-c2nc3ccccc3[nH]2)c1)c1cccc(NC(=O)c2ccco2)c1
4. CCC(C)C(NC(=O)C(CCCCN)NC(=O)C(NC(=O)C(CCC(N)=O)NC(=O)C(CCCNC(=N)N)NC(C)=O)C(C)CC)C(=O)NC(Cc1c[nH]c2ccccc12)C(=O)NC(Cc1ccccc1)C(=O)NC(CCC(N)=O)C(=O)NC(CC(N)=O)C(=O)NC(CCCNC(=N)N)C(=O)NC(CCCNC(=N)N)C(=O)NC(CCSC)C(=O)NC(CCCCN)C(=O)NC(Cc1c[nH]c2ccccc12)C(=O)NC(CCCCN)C(=O)NC(CCCCN)C(N)=O (configuration not stated)
5. Cc1ccc(NC(=O)/C(=N/NC(=O)CC#N)C2C(=O)N(c3ccccc3)N=C2N)cc1C (configuration not stated)
6. C=C1[C@H](OCC(C)C)[C@@H](OCC(C)C)[C@@H](O)C(C)(C)/C=C/[C@H](C)C(=O)[C@@]2(O)C[C@H](C)[C@H](O)[C@@H]2[C@H]1OCC(C)C
7. CCCN(CCC)C(=S)N/N=C/c1cccc(C)n1

# output
> 100 µM
> 100 µM
11.1 µM
22.5 µM
> 100 µM
> 7.5 µM
47.2 µM

Please give TGI, item by item, for the list that follows.
1. C1=Cc2nc1c(-c1ccccc1)c1ccc([n-]1)c(-c1ccccc1)c1nc(c(-c3ccccc3)c3ccc([n-]3)c2-c2ccccc2)C=C1.[Zn+2]
2. Clc1ccc2c(Cl)ncnc2c1I
3. Cc1ncc([N+](=O)[O-])n1CC(O)Cn1cnc([N+](=O)[O-])n1 (configuration not stated)

# output
["> 100 µM", "> 100 µM", "> 100 µM"]
